Test target: human recombinant cathepsin L (Homo sapiens)
Construct: they were identified as a precursor of human cathepsin L and a product processed therefrom, estimated from these molecular weights; made in house; host or cells: mouse myeloma Sp2/0 cells transformed with pTBN-HCLneo (Sp-HCL26); purified from serum-free culture supernatant on CM-Sephadex C-50 and Mono S
Sequence (P07711 114-333): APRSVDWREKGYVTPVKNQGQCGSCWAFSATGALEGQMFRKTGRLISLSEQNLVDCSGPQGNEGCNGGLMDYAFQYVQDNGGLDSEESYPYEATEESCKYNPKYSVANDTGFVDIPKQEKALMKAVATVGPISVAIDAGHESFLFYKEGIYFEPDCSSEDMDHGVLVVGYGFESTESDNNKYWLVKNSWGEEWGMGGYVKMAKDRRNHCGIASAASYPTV
Protocol summary: Determination of cathepsin L inhibitory activity
Format: biochemical
Condition: pH 5.5, 37° C., 20 minutes, Z-Phe-Arg-7MCA substrate; read-out: Inhibitory activity potency IC50 (ng/ml) Cathepsin L (converted)
Counter-ions that a name gives are not always drawn.
// reported IC50 per item
Readout type: IC50 (nM)

                                   compound  value
0  CC(C)CCNC(=O)[C@H](Cc1ccccc1)NC(=O)[C@@H]1[C@@H](C(=O)O)N1C (stereo partly shown) [Compound 43, Sodium Salt]  0.522
1  CC(C)CCNC(=O)[C@H](Cc1ccccc1)NC(=O)[C@H]1N[C@@H]1C(=O)[O-].[Na+] [Compound 4, sodium salt]   13.5
2  NCCCCNC(=O)[C@H](Cc1ccccc1)NC(=O)[C@H]1N[C@@H]1C(=O)O [Compound 7]   8.61
3  CCN1[C@H](C(=O)O)[C@H]1C(=O)N[C@@H](Cc1ccccc1)C(=O)NCCC(C)C (stereo partly shown) [Compound 45, Sodium Salt]  0.252
